tested on: SH-SY5Y; assay: Cytotoxicity against human SH-SY5Y cells assessed as cell viability at 10 uM after 48 hrs by MTT assay; assay type: cell-based
Quantity measured: Activity

The cases that follow already have their Activity on record.
Compound | Quantity measured | Result
CC(C)c1ccc2c(c1)CC[C@H]1[C@](C)(C/N=C\c3ccc(O)cc3O)CCC[C@]21C | Activity | Non-toxic
CC(C)c1ccc2c(c1)CC[C@H]1[C@](C)(CNC(=O)c3cc(O)c(O)c(O)c3)CCC[C@]21C | Activity | Non-toxic
CC(=O)Oc1cc(C(=O)NC[C@]2(C)CCC[C@]3(C)c4ccc(C(C)C)cc4CC[C@@H]23)cc(OC(C)=O)c1OC(C)=O | Activity | Non-toxic
CC(C)c1c(NC(=O)/C=C/c2ccc(O)c(O)c2)cc2c(c1[N+](=O)[O-])CC[C@H]1[C@](C)(CNC(=O)/C=C/c3ccc(O)c(O)c3)CCC[C@]21C | Activity | Non-toxic
CC(C)c1c(NC(=O)/C=C/c2ccc(O)c(O)c2)cc2c(c1NC(=O)/C=C/c1ccc(O)c(O)c1)CC[C@H]1[C@](C)(CNC(=O)/C=C/c3ccc(O)c(O)c3)CCC[C@]21C | Activity | Non-toxic

Q. Which Activity value is on record for COc1cc(/C=C/C(=O)CC(=O)/C=C/c2ccc(O)c(OC)c2)ccc1O [CURCUMIN] ?
A. Non-toxic

* * *

target: Amyloid-beta precursor protein (Homo sapiens, UniProt P05067); assay: Inhibition of amyloid beta-42 (unknown origin) self-mediated aggregation at 50 uM by thioflavin-T fluorescence assay
Sequence (P05067 whole entry): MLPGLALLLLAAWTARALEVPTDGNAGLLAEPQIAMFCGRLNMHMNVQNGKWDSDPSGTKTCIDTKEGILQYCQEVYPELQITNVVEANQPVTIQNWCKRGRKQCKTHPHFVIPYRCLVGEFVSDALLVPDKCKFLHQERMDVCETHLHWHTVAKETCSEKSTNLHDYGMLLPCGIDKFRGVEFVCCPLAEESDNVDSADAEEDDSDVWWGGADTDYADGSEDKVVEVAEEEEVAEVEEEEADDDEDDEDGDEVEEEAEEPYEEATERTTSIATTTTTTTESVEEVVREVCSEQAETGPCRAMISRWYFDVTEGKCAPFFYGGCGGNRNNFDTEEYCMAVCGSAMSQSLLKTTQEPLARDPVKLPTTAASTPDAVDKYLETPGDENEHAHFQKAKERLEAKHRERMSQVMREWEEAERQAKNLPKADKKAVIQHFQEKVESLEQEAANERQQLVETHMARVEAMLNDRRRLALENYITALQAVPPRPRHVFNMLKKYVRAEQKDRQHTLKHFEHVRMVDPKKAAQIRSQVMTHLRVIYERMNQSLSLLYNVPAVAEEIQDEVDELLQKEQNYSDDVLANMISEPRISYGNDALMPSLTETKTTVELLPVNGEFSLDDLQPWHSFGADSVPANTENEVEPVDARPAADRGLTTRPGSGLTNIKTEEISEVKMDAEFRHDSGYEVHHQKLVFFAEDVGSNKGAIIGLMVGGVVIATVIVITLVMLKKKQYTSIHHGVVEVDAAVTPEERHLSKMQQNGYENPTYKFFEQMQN
Activity calls are given as the source filed them. The calls are words filed in the database; no cut-off is given here.

Chemical smiles | inhibition
CC(C)c1c(N)cc2c(c1[N+](=O)[O-])CC[C@H]1[C@](C)(CNC(=O)c3ccc(O)c(O)c3)CCC[C@]21C | 26.1%
CC(=O)NC[C@]1(C)CCC[C@]2(C)c3ccc(C(C)C)cc3/C(=N/O)C[C@@H]12 | inactive
CC(C)c1ccc2c(c1)C(=O)C[C@H]1[C@](C)(CN)CCC[C@]21C | inactive
CC(C)c1c(NC(=O)/C=C/c2ccc(O)c(O)c2)cc2c(c1NC(=O)/C=C/c1ccc(O)c(O)c1)CC[C@H]1[C@](C)(CNC(=O)/C=C/c3ccc(O)c(O)c3)CCC[C@]21C | 93.3%

* * *

biological target: Amyloid-beta precursor protein (Homo sapiens, UniProt P05067); assay: Inhibition of amyloid beta-42 (unknown origin) self-mediated aggregation by thioflavin-T fluorescence assay
Quantity measured: pIC50
Scale for pIC50: -log10 of concentration given in mol/L; no unit attached.

Q. Can you look up the measured pIC50 of CC(C)c1c(NC(=O)/C=C/c2ccc(O)c(O)c2)cc2c(c1[N+](=O)[O-])CC[C@H]1[C@](C)(CNC(=O)/C=C/c3ccc(O)c(O)c3)CCC[C@]21C for me?
A. 5.40

* * *

biological target: Amyloid-beta precursor protein (Homo sapiens); test: Inhibition of amyloid beta-42 (unknown origin) aging fibrils disaggregation at 50 uM by thioflavin-T fluorescence assay
Active and inactive are the calls of the source. No cut-off for these calls is given here.
Quantity measured: inhibition

Below, 6 compounds whose answers are already recorded.
Chemical smiles | Test system | inhibition
CC(C)c1ccc2c(c1)CC[C@H]1[C@](C)(C/N=C\c3ccc(O)cc3O)CCC[C@]21C | Amyloid-beta precursor protein (Homo sapiens) | 10.7%
CC(C)c1c(N)cc2c(c1[N+](=O)[O-])CC[C@H]1[C@](C)(CNC(=O)c3ccc(O)c(O)c3)CCC[C@]21C | Amyloid-beta precursor protein (Homo sapiens) | 14.2%
CC(C)c1ccc2c(c1)CC[C@H]1[C@](C)(CN)CCC[C@]21C | Amyloid-beta precursor protein (Homo sapiens) | inactive
CC(=O)NC[C@]1(C)CCC[C@]2(C)c3ccc(C(C)C)cc3/C(=N/OC(=O)c3ccc(Cl)cc3)C[C@@H]12 | Amyloid-beta precursor protein (Homo sapiens) | inactive
CC(=O)NC[C@]1(C)CCC[C@]2(C)c3ccc(C(C)C)cc3/C(=N\NC(N)=S)C[C@@H]12 | Amyloid-beta precursor protein (Homo sapiens) | inactive
CC(=O)NC[C@]1(C)CCC[C@]2(C)c3ccc(C(C)C)cc3/C(=N/NC(C)=O)C[C@@H]12 | Amyloid-beta precursor protein (Homo sapiens) | inactive

Q. Returns the measured inhibition for the input compound. Input: CC(C)c1ccc2c(c1)C(=O)C[C@H]1[C@](C)(CN)CCC[C@]21C
A. inactive

Q. Give its inhibition value. Item: CC(=O)NC[C@]1(C)CCC[C@]2(C)c3ccc(C(C)C)cc3/C(=N/NC(=O)c3ccncc3)C[C@@H]12
A. inactive

Q. Please report the recorded inhibition for CC(C)c1c(NC(=O)/C=C/c2ccc(O)c(O)c2)cc2c(c1NC(=O)/C=C/c1ccc(O)c(O)c1)CC[C@H]1[C@](C)(CNC(=O)/C=C/c3ccc(O)c(O)c3)CCC[C@]21C .
A. 82.5%

Q. inhibition lookup needed for CC(C)c1ccc2c(c1)/C(=N/O)C[C@H]1[C@](C)(CNC(=O)C(F)(F)F)CCC[C@]21C , thanks.
A. inactive

Q. Given the compound CC(=O)Oc1cc(C(=O)NC[C@]2(C)CCC[C@]3(C)c4ccc(C(C)C)cc4CC[C@@H]23)cc(OC(C)=O)c1OC(C)=O , what is its reported inhibition?
A. 37.6%

Q. Please look up its inhibition: CC(C)c1c(N)cc2c(c1[N+](=O)[O-])CC[C@H]1[C@](C)(CN)CCC[C@]21C
A. inactive

Q. Any idea what inhibition was measured for CC(=O)NC[C@]1(C)CCC[C@]2(C)c3ccc(C(C)C)cc3/C(=N/O)C[C@@H]12 ?
A. inactive

Q. Reported inhibition, compound CC(C)c1ccc2c(c1)CC[C@H]1[C@](C)(CNC(=O)c3cc(O)c(O)c(O)c3)CCC[C@]21C : ____
A. 49%

Q. Item CC(C)c1ccc2c(c1)C(=O)C[C@H]1[C@](C)(CNC(=O)C(F)(F)F)CCC[C@]21C has what recorded inhibition?
A. inactive

Q. // query inhibition value for entry CC(=O)NC[C@]1(C)CCC[C@]2(C)c3ccc(C(C)C)cc3/C(=N\NC(N)=O)C[C@@H]12
A. inactive
